Target: Translocator protein (Rattus norvegicus)
Sequence (P16257 whole entry, looked up): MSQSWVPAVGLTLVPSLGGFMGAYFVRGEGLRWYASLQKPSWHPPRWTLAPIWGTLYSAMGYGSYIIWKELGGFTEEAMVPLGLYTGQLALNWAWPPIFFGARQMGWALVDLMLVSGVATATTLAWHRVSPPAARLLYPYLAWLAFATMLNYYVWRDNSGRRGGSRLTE
Assay: Displacement of Ro 5-4864 from peripheral (renal cell) Benzodiazepine receptor
pIC50: −log10 of the molar value.
PARAMETER_MEASURED: pIC50

[[record]]
structure_as_smiles = "CCOC(=O)Cc1c(-c2ccccc2)nc2ccc(Cl)cn12"
value_qualifier = "<"
recorded_measurement = 4.00

[[record]]
structure_as_smiles = "CCCCOC(=O)Cc1c(-c2ccccc2)nc2ccc(Cl)cn12"
value_qualifier = "<"
recorded_measurement = 4.00

[[record]]
structure_as_smiles = "CCOC(=O)CCc1c(-c2ccccc2)nc2ccc(Cl)cn12"
value_qualifier = "<"
recorded_measurement = 4.00

[[record]]
structure_as_smiles = "CCOC(=O)Cc1c(-c2ccc(Cl)cc2)nc2ccc(Cl)cn12"
value_qualifier = "<"
recorded_measurement = 4.00

[[record]]
structure_as_smiles = "CCCN(CCC)C(=O)Cc1c(-c2ccccc2)nc2ccc(I)cn12"
value_qualifier = "="
recorded_measurement = 7.64

[[record]]
structure_as_smiles = "CCCCOC(=O)Cc1c(-c2ccccc2)nc2ccc(C)cn12"
value_qualifier = "<"
recorded_measurement = 4.00

[[record]]
structure_as_smiles = "CCCN(CCC)C(=O)Cc1c(-c2ccccc2)nc2ccc(Cl)cn12"
value_qualifier = "="
recorded_measurement = 8.40

[[record]]
structure_as_smiles = "CCCN(CCC)C(=O)CCc1c(-c2ccccc2)nc2ccc(Cl)cn12"
value_qualifier = "="
recorded_measurement = 5.49

[[record]]
structure_as_smiles = "CCCN(CCC)C(=O)Cc1c(-c2ccccc2)nc2c(C)cc(Br)cn12"
value_qualifier = "="
recorded_measurement = 7.87

